Where do the numbers come from? From paper PMC3495945.

- System: THP-1 cells
- Assay Explanation: THP-1 induction of FKBP51, GILZ, DUSP1
- Assay type: cell-based, human
- Condition Notes: Homo sapiens; THP-1, no stimulus; read-out: EC50, DUSP1 induction
Readout Name: EC50

Compound	Target System	Measured
Cc1nnsc1C(=O)N[C@H]1CCN2c3ccc(C#N)cc3[C@@H](C)c3ccccc3[C@@H]2C1 [Org 214007-0]	THP-1 cells	6.4 nM
C[C@]12C=CC(=O)C=C1CC[C@@H]1[C@@H]2[C@@H](O)C[C@@]2(C)[C@H]1CC[C@]2(O)C(=O)CO [prednisolone, reference compound]	THP-1 cells	67.4 nM
